system: Caco-2 cells; assay: Caco-2 membrane permeability, improved method as used in the following Examples (96-well, 20 to 24 h preincubation); format: in vitro ADME; details: human, Caco-2, 180 min
Starred links: 1 amine or outer side, 2 acyl side, 3 side chain; linkers in the order of their positions; H or OH if unused. Positions of bridges follow the written chain, without caps; N, C: chain ends. Non-standard residues stand in square brackets, D forms with d. Residues, ends and D or L forms follow the SMILES beside them. *: point of attachment. NMePhe(3-Cl) = CN[C@@H](Cc1cccc(Cl)c1)C(=O)O; X8 = O=C(CN(CCN1CCC(F)(F)CC1)[*:1])[*:2]; Ethyl(2-morpholino) = C1CN(CC*)CCO1; NMeF = CN[C@@H](Cc1ccccc1)C(=O)O; NMeI = CC[C@H](C)[C@H](NC)C(=O)O; NMeL = CN[C@@H](CC(C)C)C(=O)O; dNMeL = CN[C@H](CC(C)C)C(=O)O; Propyl(2R-OH) = C[C@@H](O)C*; dNMeAbu = CC[C@@H](NC)C(=O)O; NMeV = CN[C@H](C(=O)O)C(C)C; NMeAbu = CC[C@H](NC)C(=O)O; NMeA = CN[C@@H](C)C(=O)O; Piperidide = C1CCN(*)CC1; NBuGly = CCCCNCC(=O)O; X2 = Fc1cncc(C*)c1; Sar = CNCC(=O)O; tBu = CC(C)(C)*
experimental-endpoint: Caco-2 (cm/s)

• CCCCN1CC(=O)N(C)[C@@H](CC(C)C)C(=O)N[C@H](C(=O)N2CCCCC2)CC(=O)N(C)[C@@H](C)C(=O)N[C@@H](COC[C@@H](C)O)C(=O)N(C)[C@H](CC(C)C)C(=O)N(C)[C@@H](Cc2cccc(Cl)c2)C(=O)N[C@@H](CC(C)C)C(=O)N(C)[C@@H](Cc2ccccc2)C(=O)N(C)[C@@H]([C@@H](C)CC)C(=O)N[C@@H]([C@@H](C)O)C1=O [pd489] ([NMeA]S(Propyl(2R-OH))[dNMeL][NMePhe(3-Cl)]L[NMeF][NMeI]T[NBuGly][NMeL]D-Piperidide; lactam N-11) = 1.1e-06
• CCCCN1CC(=O)N(C)[C@@H](CC(C)C)C(=O)N[C@H](C(=O)N2CCCCC2)CC(=O)N(C)[C@@H](CC)C(=O)N[C@H](CC(C)C)C(=O)N(C)[C@@H](CC(C)C)C(=O)N(C)[C@@H](Cc2ccccc2)C(=O)N[C@@H](COCCN2CCOCC2)C(=O)N(C)[C@H](CC)C(=O)N(C)[C@@H](CC(C)C)C(=O)N[C@@H]([C@@H](C)O)C1=O [pd482] ([NMeAbu][dL][NMeL][NMeF]S(Ethyl(2-morpholino))[dNMeAbu][NMeL]T[NBuGly][NMeL]D-Piperidide; lactam N-11) = 1.1e-06
• CC[C@H](C)[C@H]1C(=O)N[C@@H]([C@@H](C)O)C(=O)N(C)CC(=O)N(C)[C@@H](CC(C)C)C(=O)N[C@H](C(=O)N2CCCCC2)CC(=O)N(C)[C@@H](C(C)C)C(=O)N[C@@H](COCc2cncc(F)c2)C(=O)N(C)[C@@H](CC(C)C)C(=O)N(C)[C@@H](Cc2ccccc2)C(=O)N[C@@H](CC(C)C)C(=O)N(C)[C@@H](Cc2ccccc2)C(=O)N1C [pd347] ([NMeV]S(X2)[NMeL][NMeF]L[NMeF][NMeI]T[Sar][NMeL]D-Piperidide; lactam N-11) = 1.1e-06
• CC(C)C[C@H]1C(=O)N[C@H](C(=O)N2CCCCC2)CC(=O)N(C)CC(=O)N(C)[C@@H](Cc2ccccc2)C(=O)N[C@@H](C(C)C)C(=O)N(C)[C@@H](CC(C)C)C(=O)N[C@@H]([C@@H](C)O)C(=O)N(CCN2CCC(F)(F)CC2)CC(=O)N(C)[C@@H](Cc2ccccc2)C(=O)N(C)[C@@H](CC(C)C)C(=O)N[C@@H](COC(C)(C)C)C(=O)N1C [pd455] ([Sar][NMeF]V[NMeL]T[X8][NMeF][NMeL]S(tBu)[NMeL]D-Piperidide; lactam N-11) = 1.1e-06
